target: cGMP-dependent protein kinase 1 (Homo sapiens); details: at 1 µM
measured_parameter: residual activity

Previously resolved entries follow.
Oc1c2ccccc2c2c3c(cccc13)N=N2	79%
O=c1c2ccccc2[nH]c(=S)n1CCN1CCC(=C(c2ccc(F)cc2)c2ccc(F)cc2)CC1	107%
CC(C)n1cnc2c(NCc3ccccc3)nc(NCCCO)nc21	89%

Ask | Record request: residual activity value, item `Cn1nc2c3c(cccc31)C(=O)c1ccccc1-2`
Reply | 86%

---

target: Vascular endothelial growth factor receptor 1 (Homo sapiens); conditions: at 10 µM
Rule: residual activity below 50% gives Criterion met, anything at or above gives Criterion not met.

// below: answered compounds
Cc1nc2cc3nc(-c4cccs4)cnc3cc2n1C	Criterion met
O=C1Nc2cc(Br)ccc2/C1=C1/Nc2ccccc2/C1=N\O	Criterion met
N#C/C(=C(\N)Sc1ccc(N)cc1)c1ccccc1C(F)(F)F	Criterion met
O=C1Nc2ccc(Br)cc2/C1=C\c1cc2c([nH]1)CCCC2	Criterion met
Nc1cccc(-c2cc3c(Oc4cccc(O)c4)ncnc3[nH]2)c1	Criterion met

Ask | Check if residual activity falls below 50% for `O=C1NC(=O)c2cc(Nc3ccc(F)cc3)c(Nc3ccc(F)cc3)cc21` .
Reply | Criterion not met

Ask | Check if residual activity falls below 50% for `CN(C)c1ccc(/C=C2\C(=O)Nc3ccccc32)cc1` .
Reply | Criterion met

Ask | Check if residual activity falls below 50% for `COc1cc2ncc(-c3ccccc3)nc2cc1OC` .
Reply | Criterion not met

Ask | Check if residual activity falls below 50% for `Cn1nc2c3c(cccc31)C(=O)c1ccccc1-2` .
Reply | Criterion not met

Ask | Check if residual activity falls below 50% for `COc1cc2ncnc(Nc3ccc(O)c(Br)c3)c2cc1OC` .
Reply | Criterion met

---

The entries below are paired with their reported residual activity.
target: 3-phosphoinositide-dependent protein kinase 1 (Homo sapiens) (UniProt O15530); conditions: at 10 µM
Sequence (O15530 whole entry): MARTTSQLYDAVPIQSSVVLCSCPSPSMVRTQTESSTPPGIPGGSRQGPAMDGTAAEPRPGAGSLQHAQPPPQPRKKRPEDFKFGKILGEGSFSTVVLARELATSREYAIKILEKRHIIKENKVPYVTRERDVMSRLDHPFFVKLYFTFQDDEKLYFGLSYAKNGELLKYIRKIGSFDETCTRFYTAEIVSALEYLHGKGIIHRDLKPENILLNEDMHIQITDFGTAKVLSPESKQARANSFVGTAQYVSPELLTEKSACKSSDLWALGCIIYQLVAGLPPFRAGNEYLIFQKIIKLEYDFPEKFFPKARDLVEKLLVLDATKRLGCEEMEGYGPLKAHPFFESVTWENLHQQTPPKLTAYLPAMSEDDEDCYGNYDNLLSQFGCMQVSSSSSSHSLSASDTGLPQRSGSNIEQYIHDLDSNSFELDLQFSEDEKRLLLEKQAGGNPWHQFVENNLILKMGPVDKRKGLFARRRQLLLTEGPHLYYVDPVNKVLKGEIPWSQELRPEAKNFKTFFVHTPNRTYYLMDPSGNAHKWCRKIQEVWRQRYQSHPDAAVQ
Could you give me the number in %? Just the number is fine.

O=C(O)c1ccc2c3c1cccc3c(=O)n1c3ccccc3nc21	82
Oc1c2ccccc2c2c3c(cccc13)N=N2	19
Cn1cc(/C=C2\C(=O)Nc3ccc(S(N)(=O)=O)cc32)c2ccccc21	32
O=C1NC(=O)/C(=C\c2ccc3nccnc3c2)S1	98
O=C1c2ccccc2-[n+]2ccc3c([nH]c4ccccc43)c21	102

Here's the next entry for you.
Ask | Record request: residual activity value, item `Cn1nc2c3c(cccc31)C(=O)c1ccccc1-2`
Reply | 74

---

target: Serine/threonine-protein kinase mTOR (Homo sapiens) (UniProt P42345); details: at 1 µM
The entries below are paired with their reported residual activity.
Could you give me the number in %? Just the number is fine.

Ask | Record request: residual activity value, item `CNc1cc2c(Nc3cccc(Br)c3)ncnc2cn1`
Reply | 100

Ask | Record request: residual activity value, item `COc1cc2ncnc(Nc3ccc(O)c(Br)c3)c2cc1OC`
Reply | 96

Ask | Record request: residual activity value, item `c1ccc(-c2n[nH]cc2-c2ccnc3ccccc23)nc1`
Reply | 85

Ask | Record request: residual activity value, item `COc1ccc(CNc2nc(N(CCO)CCO)nc3c2ncn3C(C)C)cc1`
Reply | 128

Ask | Record request: residual activity value, item `COc1ccc(OC)c2c(=S)c3ccccc3[nH]c12`
Reply | 119

Ask | Record request: residual activity value, item `Oc1n[nH]c2nnc(-c3c(-c4ccccc4)nn4ccccc34)cc12`
Reply | 102

---

Molecular target: Activin receptor type-1B (Homo sapiens)
Sequence (whole entry): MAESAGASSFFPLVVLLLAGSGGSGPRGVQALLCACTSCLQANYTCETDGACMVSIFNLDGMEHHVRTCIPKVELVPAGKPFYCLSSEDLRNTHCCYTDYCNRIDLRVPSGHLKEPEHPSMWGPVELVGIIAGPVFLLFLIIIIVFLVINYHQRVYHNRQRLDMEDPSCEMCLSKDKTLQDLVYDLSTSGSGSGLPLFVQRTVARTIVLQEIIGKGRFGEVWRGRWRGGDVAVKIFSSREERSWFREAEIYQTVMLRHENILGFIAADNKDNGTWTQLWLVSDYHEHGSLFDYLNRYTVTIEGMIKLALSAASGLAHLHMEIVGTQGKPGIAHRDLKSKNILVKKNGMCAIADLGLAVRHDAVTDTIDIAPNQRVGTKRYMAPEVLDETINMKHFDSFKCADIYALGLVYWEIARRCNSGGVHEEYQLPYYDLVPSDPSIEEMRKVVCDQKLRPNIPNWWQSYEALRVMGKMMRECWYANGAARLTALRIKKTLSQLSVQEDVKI
Settings: at 1 µM
measured_parameter: residual activity (%)
Could you give me the number in %? Just the number is fine.

Ask | Record request: residual activity value, item `CC#CC(=O)Nc1cc2c(Nc3ccc(F)c(Cl)c3)ncnc2cn1`
Reply | 137

Ask | Record request: residual activity value, item `Nc1cccc(-c2cc3c(Oc4cccc(O)c4)ncnc3[nH]2)c1`
Reply | 72

Ask | Record request: residual activity value, item `O=[N+]([O-])c1ccc(-c2nc(-c3ccc(F)cc3)c(-c3ccncc3)[nH]2)cc1`
Reply | 38

Ask | Record request: residual activity value, item `Oc1ccc(-c2nc(-c3ccc(F)cc3)c(-c3ccncc3)[nH]2)cc1`
Reply | 57

Ask | Record request: residual activity value, item `CO[C@@H]1[C@H](N(C)C(=O)c2ccccc2)C[C@H]2O[C@]1(C)n1c3ccccc3c3c4c(c5c6ccccc6n2c5c31)C(=O)NC4`
Reply | 128

Ask | Record request: residual activity value, item `CN(C)c1ccc(/C=C2\C(=O)Nc3ccccc32)cc1`
Reply | 127

---

molecular target: Rho-associated protein kinase 1 (Homo sapiens); details: at 10 µM
The entries below are paired with their reported residual activity.
Just the number plus its unit, please.

CN(C)c1ccc(/C=C2\C(=O)Nc3ccccc32)cc1	123%
Ic1cccc(CSc2nnc(-c3ccncc3)o2)c1	98%
COc1ccc(OC)c2c(=S)c3ccccc3[nH]c12	102%
N#C/C(=C(\N)Sc1ccc(N)cc1)c1ccccc1C(F)(F)F	103%
Nc1cccc(-c2cc3c(Oc4cccc(O)c4)ncnc3[nH]2)c1	97%

Here's the next entry for you.
Ask | Record request: residual activity value, item `O=C1NC(=O)c2c1c1c3ccccc3[nH]c1c1[nH]c3cc(Br)ccc3c21`
Reply | 93%

---

The entries below are paired with their reported residual activity.
target: Activated CDC42 kinase 1 (Homo sapiens) (UniProt Q07912); conditions: at 1 µM
Sequence (Q07912 whole entry, looked up): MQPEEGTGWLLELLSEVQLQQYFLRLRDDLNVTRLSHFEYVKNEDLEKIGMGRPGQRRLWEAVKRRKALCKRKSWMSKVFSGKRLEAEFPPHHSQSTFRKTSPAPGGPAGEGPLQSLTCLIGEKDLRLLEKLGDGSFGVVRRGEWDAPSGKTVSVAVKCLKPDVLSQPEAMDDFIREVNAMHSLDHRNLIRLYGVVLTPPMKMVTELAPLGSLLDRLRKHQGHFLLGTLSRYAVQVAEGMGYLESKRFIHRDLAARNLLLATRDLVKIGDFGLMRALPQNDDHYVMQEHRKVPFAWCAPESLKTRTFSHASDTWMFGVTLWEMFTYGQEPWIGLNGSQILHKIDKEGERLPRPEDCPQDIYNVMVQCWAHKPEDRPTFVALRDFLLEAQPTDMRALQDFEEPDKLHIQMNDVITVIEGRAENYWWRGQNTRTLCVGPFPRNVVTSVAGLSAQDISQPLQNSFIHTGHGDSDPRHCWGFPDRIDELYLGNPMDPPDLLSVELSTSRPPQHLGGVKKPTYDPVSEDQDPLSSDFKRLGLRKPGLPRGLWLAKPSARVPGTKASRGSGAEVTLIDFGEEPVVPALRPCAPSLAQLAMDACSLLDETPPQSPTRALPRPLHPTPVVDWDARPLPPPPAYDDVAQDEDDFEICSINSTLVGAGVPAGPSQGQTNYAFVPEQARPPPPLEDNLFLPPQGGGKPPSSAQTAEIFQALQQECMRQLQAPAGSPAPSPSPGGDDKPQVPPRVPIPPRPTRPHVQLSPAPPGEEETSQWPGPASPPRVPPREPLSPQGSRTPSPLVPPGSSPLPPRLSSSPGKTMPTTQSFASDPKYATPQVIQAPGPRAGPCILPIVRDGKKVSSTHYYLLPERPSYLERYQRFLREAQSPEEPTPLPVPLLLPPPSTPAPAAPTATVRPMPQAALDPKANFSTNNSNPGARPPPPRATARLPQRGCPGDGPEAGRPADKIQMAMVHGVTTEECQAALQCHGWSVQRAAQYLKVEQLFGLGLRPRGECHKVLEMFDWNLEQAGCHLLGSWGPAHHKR
Could you give me the number in %? Just the number is fine.

Previously resolved entries follow.
O=c1cc(-c2cccc3c2Sc2ccccc2S3)oc(N2CCOCC2)c1	89
O=C1Nc2ccc(Br)cc2/C1=C\c1cc2c([nH]1)CCCC2	54
O=C1Nc2ccccc2/C1=C1/Nc2ccccc2/C1=N\OCCC(O)CO (centres undefined)	14
Cc1cccc(-c2[nH]c(C(C)(C)C)nc2-c2ccc3c(c2)OCO3)n1	90
O=C1NC(=O)/C(=C/c2ccc3c(c2)OC(F)(F)O3)S1	96
CC#CC(=O)Nc1cc2c(Nc3ccc(F)c(Cl)c3)ncnc2cn1	86
Nc1ccc2ncnc(NCCc3ccc(Oc4ccccc4)cc3)c2c1	81
CO[C@H]1C[C@@H]2CC[C@@H](C)[C@@](O)(O2)C(=O)C(=O)N2CCCC[C@H]2C(=O)O[C@H]([C@H](C)C[C@@H]2CC[C@@H](O)[C@H](OC)C2)CC(=O)[C@H](C)/C=C(\C)[C@@H](O)[C@@H](OC)C(=O)[C@H](C)C[C@H](C)/C=C/C=C/C=C/1C	82

Ask | Record request: residual activity value, item `CCC(=O)Nc1ccc2ncnc(Nc3cccc(Br)c3)c2c1`
Reply | 70

---

The entries below are paired with their reported residual activity.
target: Tyrosine-protein kinase ITK/TSK (Homo sapiens); settings: at 10 µM
Could you give me the number in %? Just the number is fine.

Previously resolved entries follow.
COc1ccc(C(=O)Nc2sc3c(c2C(N)=O)CCCC3)cc1OC	96
CC(=O)c1ccc(N2CCOCC2)cc1O	97

Ask | Record request: residual activity value, item `CCC(=O)Nc1ccc2ncnc(Nc3cccc(Br)c3)c2c1`
Reply | 102

Ask | Record request: residual activity value, item `Nc1n[nH]c2nnc(-c3c(-c4ccccc4)nn4ccccc34)cc12`
Reply | 88

---

target: RAF proto-oncogene serine/threonine-protein kinase (Homo sapiens) (UniProt P04049); conditions: at 1 µM
Sequence (P04049 whole entry): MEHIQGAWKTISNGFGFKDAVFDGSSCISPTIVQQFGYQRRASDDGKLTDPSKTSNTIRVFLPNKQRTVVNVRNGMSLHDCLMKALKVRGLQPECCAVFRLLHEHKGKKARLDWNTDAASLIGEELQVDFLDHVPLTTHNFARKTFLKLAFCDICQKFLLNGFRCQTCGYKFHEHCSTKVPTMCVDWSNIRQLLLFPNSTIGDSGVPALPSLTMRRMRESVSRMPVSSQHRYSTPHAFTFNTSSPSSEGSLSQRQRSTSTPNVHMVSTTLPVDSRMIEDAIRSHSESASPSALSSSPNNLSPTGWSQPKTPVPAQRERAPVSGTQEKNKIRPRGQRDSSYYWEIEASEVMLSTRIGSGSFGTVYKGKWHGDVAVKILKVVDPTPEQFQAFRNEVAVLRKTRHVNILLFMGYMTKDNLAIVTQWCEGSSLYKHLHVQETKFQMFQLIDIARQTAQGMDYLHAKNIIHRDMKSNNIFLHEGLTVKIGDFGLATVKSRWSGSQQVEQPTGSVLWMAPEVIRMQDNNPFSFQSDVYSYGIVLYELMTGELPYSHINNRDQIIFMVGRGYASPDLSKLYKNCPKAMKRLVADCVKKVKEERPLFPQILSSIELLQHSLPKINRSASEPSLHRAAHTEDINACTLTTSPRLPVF
measured_parameter: residual activity (%)
Could you give me the number in %? Just the number is fine.

Previously resolved entries follow.
CO[C@@H]1[C@H](N(C)C(=O)c2ccccc2)C[C@H]2O[C@]1(C)n1c3ccccc3c3c4c(c5c6ccccc6n2c5c31)C(=O)NC4	80
N#CC(C#N)=C(N)/C(C#N)=C/c1ccc(O)cc1	92
CC(=O)c1ccc(N2CCOCC2)cc1O	83
COc1ccc(C(=O)Nc2sc3c(c2C(N)=O)CCCC3)cc1OC	87
CO[C@H]1[C@@H](OC)C[C@H](C)[C@@H](OC)C2=CC(=O)C=C(NC(=O)/C(C)=C/C=C/[C@H](OC)[C@@H](OC(N)=O)/C(C)=C/[C@@H]1C)C2=O	93
CCN(CC)C(=O)c1ccc(Nc2nc(OCC3CCCCC3)c3nc[nH]c3n2)cc1	62
O=c1c2ccccc2[nH]c(=S)n1CCN1CCC(=C(c2ccc(F)cc2)c2ccc(F)cc2)CC1	83
CN(C)c1ccc(/C=C2\C(=O)Nc3ccccc32)cc1	94

Ask | Record request: residual activity value, item `c1ccc(-c2n[nH]cc2-c2ccnc3ccccc23)nc1`
Reply | 81

Ask | Record request: residual activity value, item `O=C(Nc1cccc(Nc2nccc(Nc3cccc(C(F)(F)F)c3)n2)c1)C1CC1`
Reply | 89

Ask | Record request: residual activity value, item `CC#CC(=O)Nc1cc2c(Nc3ccc(F)c(Cl)c3)ncnc2cn1`
Reply | 82

Ask | Record request: residual activity value, item `Oc1ccc(Nc2nc(-c3ccc(Cl)cc3)cs2)cc1`
Reply | 84

Ask | Record request: residual activity value, item `C[C@@H](N)[C@H]1CC[C@H](C(=O)Nc2ccncc2)CC1`
Reply | 100
